Data provenance: paper PMC9822051

Assay: Cytotoxicity, resazurin, 72 h
Format: cell-based, human
Details: human, RPE-1 normal retina cells, RPE-1 normal cells
outcome.measure: IC50 at 72 h

stdin: // IC50 at 72 h lookup, key: CC1CCC2(OC3CC4C5CC=C6CC(O)CCC6(C)C5CCC4(C)C3C2C)[S+]([O-])C1 (stereo not shown) [Sulfoxide 6]
stdout: > 50 µM

stdin: // lookup IC50 at 72 h for CC1CCC2(OC3CC4C5CC6OC67CC(O)CCC7(C)C5CCC4(C)C3C2C)S(=O)(=O)C1 (stereo not shown)
stdout: > 50 µM

stdin: So what does the record say about IC50 at 72 h for CC1CCC2(OC3CC4C5CC=C6CC(O)CCC6(C)C5CCC4(C)C3C2C)SC1 (stereo not shown) ?
stdout: > 50 µM

stdin: Quick check: IC50 at 72 h of CC1CCC2(OC3CC4C5CC=C6CC(O)CCC6(C)C5CCC4(C)C3C2C)S(=O)(=O)C1 (stereo not shown) ?
stdout: > 50 µM

* * *

Give IC50 at 72 h for every item shown.
Assay: Cytotoxicity, resazurin, 72 h
Type: cell-based, human
Conditions: human, HeLa cervical carcinoma cells
Give a bare numeral; the unit µM is implied.

stdin: So what's the measured IC50 at 72 h for this one? CC1CCC2(CC1)O[C@H]1C[C@H]3[C@@H]4CC[C@H]5C[C@@H](O)CC[C@]5(C)[C@H]4CC[C@]3(C)[C@H]1[C@@H]2C (stereo partly shown) [Carbaanalog 5]
stdout: 38.2

stdin: // lookup IC50 at 72 h for CC1CCC2(OC3CC4C5CC=C6CC(O)CCC6(C)C5CCC4(C)C3C2C)[S+]([O-])C1(C)C (stereo not shown) [Dimethylsulfoxide 10]
stdout: 32.2

* * *

System: normal human retina cells RPE-1
Experiment: Cytotoxicity, resazurin, 72 h
Type: cell-based
Conditions: RPE-1 normal cells
outcome.measure: IC50

stdin: Which value of IC50 has been reported for CC1CCC2(OC3CC4C5CC=C6CC(O)CCC6(C)C5CCC4(C)C3C2C)[S+]([O-])C1 (stereo not shown) [Sulfoxide 7] in the records?
stdout: > 50 µM

* * *

Please respond with reported melting point for every item in the list.

stdin: Request the reported melting point associated with CC1CCC2(OC3CC4C5CC=C6CC(O)CCC6(C)C5CCC4(C)C3C2C)S(=O)(=O)C1C (centres unmarked)
stdout: 225 to 227 °C

stdin: Need melting point, item CC1CCC2(OC3CC4C5CC=C6CC(O)CCC6(C)C5CCC4(C)C3C2C)[S+]([O-])C1 (centres unmarked) [Sulfoxide 7]
stdout: 165 to 166 °C

stdin: Which melting point value belongs to CC1CCC2(OC3CC4C5CC=C6CC(O)CCC6(C)C5CCC4(C)C3C2C)S(=O)(=O)C1 (centres unmarked) ?
stdout: 205 to 207 °C

stdin: Which melting point is listed for CC1CCC2(OC3CC4C5CC=C6CC(O)CCC6(C)C5CCC4(C)C3C2C)[S+]([O-])C1 (centres unmarked) [Sulfoxide 6] ?
stdout: 143 to 146 °C

stdin: Fill in: melting point of CCC1C(C)CCC2(OC3CC4C5CC=C6CC(O)CCC6(C)C5CCC4(C)C3C2C)S1(=O)=O (centres unmarked) is ___
stdout: 210 to 212 °C

* * *

System: chronic myelogenous leukemia K562
Test: Cytotoxicity, resazurin, 72 h
Type: cell-based, human
Conditions: K562, 72 h
pIC50: −log10 of the molar value.
outcome.measure: pIC50

stdin: # query: pIC50 of entry CC1CCC2(OC3CC4C5CC=C6CC(O)CCC6(C)C5CCC4(C)C3C2C)[S+]([O-])C1 (stereo not shown) [Sulfoxide 7]
stdout: < 4.30
